ASSAY_NAME: NCI Yeast Anticancer Drug Screen. Data for the rad50 strain (AID 155);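 also: 0% = growth of vehicle-only cultures of the same strain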
CONDITIONS_USED: S. cerevisiae rad50 strain growth inhibition; at 5.0 µM (retest, dose inferred, filed as 0.5); hits give high values
The panel holds about 79,000 compounds, 15% with a hit somewhere; the sample as a whole holds those more often.
MEASUREMENT_LABEL: growth inhibition (%)
API: value field is a number in %; no unit string.

CC1(C)N=c2cc3c(cc2N1c1ccc(Cl)cc1)=Nc1ccccc1N3c1ccc(Cl)cc1 = 17
CC1=CC[C@@H]2[C@@H](CC[C@@]2(C)O)C(C)(C)[C@H]1CC[C@@H]1[C@@]2(C)CCC(=O)C(C)(C)O[C@@H]2CC[C@]1(C)O = 20
CCC(C)(O)Cc1ccc(Cl)cc1 (stereo unspecified) = 4

Given the molecule CC(=O)c1ccc2c(c1)CCc1ccccc1-2 , what is its reported growth inhibition?
2

How about this molecule: CCC(C)(C)N(CC(=O)O)CC(=O)O
-6

OC(c1cc(-c2ccc(C(F)(F)F)cc2)nc(C(F)(F)F)c1)C1CCCCN1 (stereo unspecified) ?
23

====

ASSAY_NAME: NCI Yeast Anticancer Drug Screen. Data for the mlh1 rad18 strain (AID 175)
CONDITIONS_USED: S. cerevisiae mlh1 rad18 strain growth inhibition; at 50.0 µM (retest, dose inferred, filed as 5.0); hits give high values
Experimental: Growth inhibition of yeast strains with defined genetic alterations is measured as a screen for potential anti-cancer activity. Selected strains with alterations in DNA damage repair or cell cycle control were exposed to compounds and growth inhibition was measured relative to vehicle treated controls. The strain used in this assay is mlh1 rad18
About 79,000 compounds went through this panel and 15% of them were active in at least one assay; those are over-represented in the sample as a whole. The source made the active and inactive calls. Rule as the data show it: active = growth inhibition above about 70%; inactive = the rest.
MEASUREMENT_LABEL: growth inhibition

CCOc1ccc(NC(=O)/C(=N\N)C(C(=O)OC)c2nc3ccc(Cl)cc3[nH]c2=O)cc1 (centres undefined) = -8% (inactive)
C=C(C(N)=O)C(N)C(=O)O (centres undefined) = 32% (inactive)
CN(C)c1ccc(C(C#N)(c2ccccc2)c2ccc(N(C)C)cc2)cc1 = 86% (active)
CCN(CC)CCNc1ccc([N+](=O)[O-])c2sc3ccccc3c(=O)c12 = 88% (active)
Nc1nc2ncc(CNc3ccc(C(=O)NC(CCC(=O)NC(CCC(=O)NC(CCC(=O)NC(CCC(=O)NC(CCC(=O)O)C(=O)O)C(=O)O)C(=O)O)C(=O)O)C(=O)O)cc3)nc2c(=O)[nH]1 (centres undefined) = 20% (inactive)

Entry CSS(C)(=O)=O has what growth inhibition?
95% (active)

Try this molecule next: S=c1[nH]c(=S)c2[nH]c(=S)[nH]c2[nH]1
-23% (inactive)

Follow-up item: CC(O)C(O)C(O)C(O)C(O)C(=O)NNc1ccccc1 (centres undefined)
85% (active)

Same thing, different molecule: OCCNC(c1ccc(Cl)cc1)C(O)c1ccc(Cl)cc1 (centres undefined)
59% (inactive)

Query Oc1ccc(Cl)cc1Cc1cc(Cl)ccc1O next
99% (active)

Consider next the molecule CCOC(=O)C1=NN(c2ccccc2)C(=O)/C1=C\N1C(=O)/C(=C/c2cccc(O)c2)SC1=S in the same way.
10% (inactive)

Field entry: CCC1CCCCN1C(=S)N/N=C(\C)c1ccccn1 (centres undefined)
98% (active)

Then this molecule: Cc1ccc(/C=C2\CNC/C(=C\c3ccc(C)cc3)C2=O)cc1
97% (active)

What would you report for O=C(O)/C=C\C(=O)NNc1ccccc1 ?
94% (active)

What about this molecule? OC(c1cc2ccc(C(F)(F)F)cc2c2cc(C(F)(F)F)ccc12)C1CCCCN1 (centres undefined)
97% (active)

====

ASSAY_NAME: NCI Yeast Anticancer Drug Screen. Data for the mlh1 rad18 strain (AID 175)
CONDITIONS_USED: S. cerevisiae mlh1 rad18 strain growth inhibition; at 50.0 µM
The panel holds about 79,000 compounds, 15% with a hit somewhere; the sample as a whole holds those more often. Activity calls are given as the source filed them. Rule as the data show it: active = growth inhibition above about 70%; inactive = the rest.
Hello, when you answer, please use one of the following outcomes: label 1 (active), label 0 (inactive)

Past entries and their recorded results:
CCCc1cc(=O)oc2c3c(c4c(c12)OC(C)(C)CC4)OC(C)[C@H](C)[C@@H]3O (stereo partly specified) = label 1
COc1cc(/C=C/c2ccnc3ccccc23)cc(OC)c1OC = label 0
CCCCCCCCCCCCN1C(C)=CS/C1=C\C=C\c1scc(C)[n+]1CCCCCCCCCCCC = label 1
Clc1ccc(Cc2nc3ccccc3s2)cc1 = label 1

Test call, this compound: N#Cc1c2ccccc2nc2ccccc12
label 1

Note, next up: CCOc1ccc(C(CN2CCOCC2)C(C)=O)cc1OC (stereo unspecified)
label 0

====

ASSAY_NAME: NCI Yeast Anticancer Drug Screen. Data for the mec2-1 strain (AID 157)
CONDITIONS_USED: S. cerevisiae mec2-1 strain, at 5.0 µM (retest, dose inferred, filed as 0.5), hits give high values
Compounds without any hit were thinned out: in the full panel of roughly 79,000, 15% have a hit.
MEASUREMENT_LABEL: growth inhibition (%)
Write down the numeric answer in % and omit the unit.

Past entries and their recorded results:
C=COC(=O)c1ccccc1C(=O)OCCCC = -2
CC1=CC[C@@H]2[C@@H](CC[C@@]2(C)O)C(C)(C)[C@H]1CC[C@@H]1[C@@]2(C)CC[C@@H](O)C(C)(C)O[C@@H]2CC[C@]1(C)O = -8
S=c1[nH]c2cc(Cl)ccc2s1 = -4
CCCCCCCCCCCCCCCC[N+](C)(C)C = 45
CC(=O)c1ccc2c(c1)sc1cc(C(C)=O)ccc12 = 15

Query: growth inhibition; subject: CN(C)c1cc(N)c(Cc2c(N)cc(N(C)C)cc2Cl)c(Cl)c1
-2

Same lookup for N#CC(I)CS(=O)(=O)c1ccccc1 (stereo not drawn) , please.
100

Quick one: Oc1ccc2c(c1)CCc1ccccc1-2
36

Also S=C(S)OCN1CCOCC1 ?
59

Queued: COc1ccc(C(N)=O)cc1
-3

Another compound: C=C(C)C1CC2(C)C(C)CC(O)CC2C(OC(=O)C=C(C)C)C1O (stereo not drawn)
12

# iterate: Cc1cccc2c(N)c3ccccc3nc12
3

Lookup CCC1C[N+]2=C(c3cc(OC)c(OC)cc3CC2)c2c1cc1n2CCc2cc(OC)c(OC)cc2-1 (stereo not drawn)
100

====

ASSAY_NAME: NCI Yeast Anticancer Drug Screen. Data for the cln2 rad14 strain (AID 165);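 also: 0% = growth equal to vehicle treated cultures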
CONDITIONS_USED: S. cerevisiae cln2 rad14 strain, at 50.0 µM (retest, dose inferred, filed as 5.0), hits give high values
The panel holds about 79,000 compounds, 15% with a hit somewhere; the sample as a whole holds those more often.
Rule: growth inhibition under 90% gives No, otherwise Yes.

Example entries and their recorded answers appear below.
CCN(CC)CC(O)c1cc(-c2ccc(Cl)cc2)nc2cc(Cl)ccc12 (stereo not drawn) = Yes
CCCCCCCCCCCCCCCCCC1=NCCCN1CCO = No
Oc1ccc2ccccc2c1N=Nc1ccccn1 = Yes
CN1CCc2cc3c(c4c2C1C(O)c1ccccc1-4)OCO3 (stereo not drawn) = No
Nc1ccc(Oc2ccccc2)c(Cl)c1 = No

Could you tell me if the measured growth inhibition of N#CC(=C1SCS1)[N+](=O)[O-] reaches 90% or more?
Yes

What would you report for CCCCN(CCCC)C(=O)C(C)OC(C)=O (stereo not drawn) ?
No

Try O=C(NNc1ccccc1)OCc1ccccc1 next.
Yes

====

ASSAY_NAME: NCI Yeast Anticancer Drug Screen. Data for the mec2-1 strain (AID 157)
CONDITIONS_USED: S. cerevisiae mec2-1 strain, at 5.0 µM (retest, dose inferred, filed as 0.5), hits give high values
Description: Growth inhibition of yeast strains with defined genetic alterations is measured as a screen for potential anti-cancer activity. Selected strains with alterations in DNA damage repair or cell cycle control were exposed to compounds and growth inhibition was measured relative to vehicle treated controls. The strain used in this assay is mec2-1
About 79,000 compounds went through this panel and 15% of them were active in at least one assay; those are over-represented in the sample as a whole. Active and inactive are the calls of the source. Rule as the data show it: active = growth inhibition above about 70%; inactive = the rest.
MEASUREMENT_LABEL: growth inhibition

Consider the reported growth inhibition for these molecules:
Cc1nnc(N/N=C/c2ccc([N+](=O)[O-])o2)[nH]c1=O = 6% (inactive)
CC(=O)Oc1c(Br)cc(Br)cc1C(OC(C)=O)OC(C)=O = 8% (inactive)

I'd like to know its growth inhibition. The molecule in question is CCOc1ccc(NC(=O)/C(=N\N)C(C(=O)OC)c2nc3ccc(Cl)cc3[nH]c2=O)cc1 (configuration not stated)
-1% (inactive)

Would you kindly repeat that for O=[N+]([O-])c1ccc(C2N(Cc3ccc(Cl)cc3)CCN2Cc2ccc(Cl)cc2)cc1 ?
48% (inactive)

Now try C=C(C(N)=O)C(N)C(=O)O (configuration not stated) .
6% (inactive)

Also, Cn1c(COC(=O)NC2CCCCC2)c(COC(=O)NC2CCCCC2)c2ccc3cc(Cl)c(Cl)cc3c21 please.
-5% (inactive)

Next entry: COc1cccc(NC(=O)c2c(SC)c(C#N)c(=O)n(N)c2N)c1
10% (inactive)

O=C(/C=C/c1ccccc1)c1ccc(N=Cc2ccccc2)cc1 ?
6% (inactive)

One more molecule: Cc1ccccc1N=C(N)Nc1ccccc1C (tested in a mixture with another compound)
-2% (inactive)

Now consider CCCCCCCCCCCC[n+]1ccccc1 (tested in a mixture with another compound) .
91% (active)

Also need O=C(O)CCCOc1cc(-c2ccccc2F)nc2cc3c(cc12)OCO3 , thanks.
3% (inactive)

Now try CCOC(=O)COc1cc(-c2ccccc2F)nc2cc3c(cc12)OCO3 .
4% (inactive)

Field entry: CN1CCc2cc3c(c4c2C1C(O)c1ccccc1-4)OCO3 (configuration not stated)
12% (inactive)

Repeat with O=C(CCc1ccccc1)ON1C(=S)NC(c2ccccc2)(c2ccccc2)C1=S
0% (inactive)

And what about the molecule C=CC(=O)OCCOCc1ccccc1 ?
-3% (inactive)
